Entries and their melting point values follow.

Example compounds with recorded melting point:
>>> assay_result("CN(C)c1ccc(NC(=O)N(C[C@H]2CC[C@@H](CN(C(=O)Nc3ccc(N(C)C)cc3)C3CCCCCCC3)CC2)C2CCCCCCC2)cc1")
"197 to 200 °C"
>>> assay_result("CCOC(=O)C1(C(=O)OCC)CC(c2ccccc2[N+](=O)[O-])C(O)N1C=O (configuration not stated)")
"109 to 111 °C"
>>> assay_result("CC1(C)Oc2ccc(C#N)cc2[C@@H](N2CCSC2=NC#N)[C@@H]1O")
"272 to 274 °C"
>>> assay_result("CC(C)(O)c1ccc(C2CCNCC2)c(F)c1")
"151 °C"
>>> assay_result("COc1c(N2C[C@@H](C)N[C@@H](C)C2)c(F)cc2c(=O)c(C(=O)O)cn([C@@H]3C[C@@H]3F)c12")
"129 to 131 °C"

// field: melting point; key: "Cc1nc(N2CCN(CC3CC3)C2=O)sc1C(=O)NCc1cncc(F)c1" ; value = 144 to 145 °C

// field: melting point; key: "O=C(Nc1ccc(Oc2ccnc(N3CCC(F)(F)CC3)n2)c2ccccc12)c1cc(F)cc(N2CCCCC2)c1" ; value = 172 to 174 °C

// field: melting point; key: "O=C(c1ccc(=O)[nH]c1)n1ccnc1" ; value = 200 °C

// field: melting point; key: "Cc1oc(-c2ccccc2)nc1CNCc1ccc(C[C@@H](C(=O)O)n2cccc2)cc1" ; value = 163 to 165 °C

// field: melting point; key: "CN1CCN(c2ccc(S(=O)(=O)Oc3ccccc3)c(Cl)c2[N+](=O)[O-])CC1" ; value = 94 to 95 °C

// field: melting point; key: O=C(O)c1ccc(N2CCCC2)c(NC(=O)C(CS)Cc2ccccc2)c1 (configuration not stated) ; value = 229 to 234 °C

// field: melting point; key: CC1(C)Cc2cc(C3=NNC(=O)C4CCC34)ccc2NC1=O (configuration not stated) ; value = 301 to 302 °C

// field: melting point; key: COC(=O)c1ccc(CN2CC2C#N)c(OC)n1 (configuration not stated) ; value = 156 to 158 °C

Attribution: a melting point compilation (Tetko et al.; mined from patent text by program, amines drawn as free bases though some values may be those of a salt)
